Exercise: state measured IC50 for each of the molecules provided.
Measurement protocol: Antiaggregatory activity in human platelet rich plasma assessed as inhibition of collagen-induced platelet aggregation preincubated 10 mins before collagen challenge
Assay type: functional
Just the number please, in µM, no unit attached.

### Prompt Please give measured IC50 of the following entry: CC(=O)Oc1ccccc1C(=O)OCOC(=O)c1ccc([S+]([O-])CCCO[N+](=O)[O-])cc1 (stereo not drawn)
### Response 72

### Prompt Provide measured IC50 value, entry: `CC(=O)Oc1ccccc1C(=O)OCOC(=O)c1ccc(S(=O)(=O)CCCO[N+](=O)[O-])cc1`
### Response 38

### Prompt Please supply the value of reported IC50 for the item `CC(=O)Oc1ccccc1C(=O)OCOC(=O)c1cccc(CO[N+](=O)[O-])n1`
### Response 20

### Prompt State, in one line, measured IC50 of CC(=O)Oc1ccccc1C(=O)OCOC(=O)c1ccc(SCC(CO[N+](=O)[O-])O[N+](=O)[O-])cc1 (stereo not drawn)
### Response 129

### Prompt Give IC50 for CC(=O)Oc1ccccc1C(=O)OCOC(=O)c1ccc(OCC(CO[N+](=O)[O-])O[N+](=O)[O-])cc1 (stereo not drawn)
### Response 140

### Prompt Given the molecule `CC(=O)Oc1ccccc1C(=O)OCOC(=O)c1ccc(CCCO[N+](=O)[O-])cc1` , write its reported IC50.
### Response 41

### Prompt Please list IC50 recorded for the molecule CC(=O)Oc1ccccc1C(=O)O [ASPIRIN]
### Response 54

### Prompt Assign IC50 to the following record: CC(=O)Oc1ccccc1C(=O)OCOC(=O)c1ccc(CC(CO[N+](=O)[O-])O[N+](=O)[O-])cc1 (stereo not drawn)
### Response 97

----------
Measurement protocol: Chemical stability in phosphate buffer at pH 7.4 assessed as unchanged drug level at 0.5 mM after 3 hrs by RP-HPLC analysis
Format: physicochemical
Condition: read-out: Stability
Test readout: remaining at 3 h, 500 µM

### Prompt Give the value of remaining at 3 h, 500 µM reported for the following: `CC(=O)Oc1ccccc1C(=O)O`
### Response 90%

### Prompt Give the reported value of remaining at 3 h, 500 µM for this record: CC(=O)Oc1ccccc1C(=O)OCOC(=O)c1ccc(OCC(CO[N+](=O)[O-])O[N+](=O)[O-])cc1 (stereo not drawn)
### Response 99%

### Prompt Provide one value: measured remaining at 3 h, 500 µM of `CC(=O)Oc1ccccc1C(=O)OCOC(=O)CCCCCCO[N+](=O)[O-]`
### Response 100%
